- Tested on: AA1029
- EXPERIMENTAL DETAILS: qHTS profiling for inhibitors of Plasmodium falciparum proliferation (AID 504749); note: nearly all actives have a fitted effect of over 60% in size
- CONDITION DETAILS: P. falciparum in erythrocytes, SYBR Green DNA, 72 h; series mostly up to 28.7 µM
Records with an inconclusive call do not appear. Active and inactive are the calls of the source. Calls come from the whole dose curve; as a rule, active = well fitted inhibition curve with a large enough effect; inconclusive = small, poorly fitted or top-dose-only effect; inactive = flat fitted curve, though single readings scatter.
MEASUREMENT LABEL: outcome

molecule=COc1ccc2c(c1)c1c3n2CCN(C)C3=NCC1 assayed_target=AA1029 observed_result=inactive
molecule=CN1CCN(c2cc3c(cc2F)c(=O)c(C(=O)O)cn3-c2ccc(F)cc2)CC1 assayed_target=AA1029 observed_result=inactive
molecule=CC(=O)NCCCCCC(=O)O assayed_target=AA1029 observed_result=inactive
molecule=O=S(=O)(O)c1ccc(O)cc1 assayed_target=AA1029 observed_result=inactive
molecule=CC(C)(C)NC[C@H](O)COc1cccc2c1CCCC2=O assayed_target=AA1029 observed_result=inactive
molecule=CC(=O)Nc1ccc(CC(=O)O)cc1 assayed_target=AA1029 observed_result=inactive
molecule=COc1cc([C@H]2Oc3cc([C@H]4Oc5cc(O)cc(O)c5C(=O)[C@@H]4O)ccc3O[C@@H]2CO)ccc1O assayed_target=AA1029 observed_result=inactive
molecule="CC1(COc2ccc(CC3SC(=O)NC3=O)cc2)CCCCC1 (stereo not drawn)" assayed_target=AA1029 observed_result=inactive

Measured values drawn from PubChem BioAssay (NCATS) for this set.
